Data origin, for the record: the supplement of paper PMC11061612

Test system: NCI-H2452 (Mesothelioma)
measurement-notes: combination Emax (second highest fraction inhibited in the dose matrix, 72 h); higher = more inhibition; extreme values may be limits of the assay
Attribute: combination Emax
// no unit, no text: just the number

compound	combination Emax
CN(CCO)CC[C@H](CSc1ccccc1)Nc1ccc(S(=O)(=O)NC(=O)c2ccc(N3CCC([C@@H](O)c4ccccc4-c4ccc(Cl)cc4)CC3)cc2)cc1S(=O)(=O)C(F)(F)F [AZD4320] + Cc1cc2ncnn2cc1Nc1ncc2c(n1)n(C1CCOCC1)c(=O)n2C [AZD7648] (first compound max 1 µM, 7x7, partner max 10 µM)	0.386

// next entry
Entry NC1(C(=O)N[C@@H](CCO)c2ccc(Cl)cc2)CCN(c2ncnc3[nH]ccc23)CC1 [Capivasertib] + CC(=O)c1c(C)c2cnc(Nc3ccc(N4CCNCC4)cn3)nc2n(C2CCCC2)c1=O [Palbociclib] (first compound max 10 µM, 7x7, partner max 10 µM) , system NCI-H2452 (Mesothelioma): what combination Emax was measured? 0.474
